Assay: Phase 1 PET-CT brain biodistribution study TM0017 (VT, K1, k2)
Assay type: in vivo, human
Settings: male, human, brain/plasma, intravenous; steady-state, from VT; read-out: Kp (total brain to total plasma concentration, partition coefficient)
property measured: Kp

Value of Kp reported for the compound `CCCC[C@H](Cc1c[nH]c2ccccc12)NC(=O)c1cnc(N2CCN(C)CC2)s1` is ~0.5

###

Assay: Radio-HPLC metabolite analysis of mouse brain homogenate and plasma after IV radiotracer
Type: in vivo, male C57 black 6 mice
Conditions: male, C57 black 6, mouse, brain/plasma, intravenous, 1.54 µg, mouse, 60 min; read-out: ratio (SD) of parent in the brain versus parent in plasma
property measured: Kp at 60 min
Give bare numbers.

Value of Kp at 60 min reported for the compound CCCC[C@@H](Cc1c[nH]c2ccccc12)NC(=O)c1cnc(N2CCN([11CH3])CC2)s1 [[^11C-N-CH3]UCB2713] is 0.73

Source: paper PMC10973027
